ASSAY PROTOCOL: probe aWnt5a binding to arrayed compounds – biochemical, biotinylated probe, 635/667 nm fluorescence, primary screen (AID 1113);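 note: score merges 667 nm fluorescence intensity with signal-to-noise per printed feature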
COND: small-molecule microarray, higher = more signal
MEASURED METRIC: composite z-score
In your answer, state the number alone without any accompanying words.

Check out these entries, answers already filled in.
COCCOC(=O)N1C(=O)[C@@]2(c3cc(C#CC4(O)CCCCCC4)ccc31)[C@H](c1ccc(O)cc1)N1[C@H](c3ccccc3)[C@H](c3ccccc3)OC(=O)[C@H]1[C@@H]2C(=O)N1CCc2cc(OC)c(OC)cc2C1 | -0.145
CCCC[C@H]1C[C@@H]1[C@@H]1N(P(=O)(c2ccccc2)c2ccccc2)[C@](CO)(c2ccccc2)CC12CC2 | 0.188
C=CC[C@@]1(C(=O)NCCN2CCOCC2)N=C(c2ccc(OCCCO)cc2)O[C@@H]1c1ccccc1CN=[N+]=[N-] | -0.154
CCCCCCCCCCC(O)C1C=CC2C(=O)N(c3ccccc3)C(=O)C2N1Nc1ccc([N+](=O)[O-])cc1 (configuration not stated) | -0.0263
C=C(CCCC)/C(=C/C[C@@H](OC(=O)c1ccncc1)c1ccc(CO)o1)c1cc(C(=O)OC)ccc1OC | -0.0445
C=C(COC)C(=O)CC[C@@H](OC(=O)c1ccccc1-c1ccccc1C(=O)O)c1ccc(CO)o1 | -0.256

Would you kindly look at the next entry?
Query: Specify reported composite z-score for the compound shown: COC(=O)c1nc2oc1CC[C@@H](CO)NC(=O)N(C)Cc1cn(nn1)C[C@H](Cc1ccccc1)NC2=O
Result: -0.129
